# Tested on: foxtail, giant (giant foxtail, Setaria faberii)
# test.protocol: Test C greenhouse herbicide test, pre- and postemergence
# Type: in vivo
# condition.context: Postemergence, 31 g ai/ha; 0 to 100 scale (0 no effect, 100 complete control)
quantity.name: Foxtail, Giant plant response rating
Enter the number alone.

Problem: Request the reported Foxtail, Giant plant response rating associated with `Cc1cc(C)c2ccccc2c1-c1c(O)cnn(C)c1=O`
Result: 5

Problem: Request the reported Foxtail, Giant plant response rating associated with `Cc1ccc2ccccc2c1-c1c(O)c(C)nn(C)c1=O`
Result: 45

Problem: Request the reported Foxtail, Giant plant response rating associated with `Cc1ccc(-c2c(O)c(Br)nn(C)c2=O)c2ccccc12`
Result: 0

Problem: Request the reported Foxtail, Giant plant response rating associated with `CCOC(=O)Oc1c(C)nn(C)c(=O)c1-c1c(CC)ccc2ccccc12`
Result: 25
